The origin of these recorded values is ChEMBL document CHEMBL1140260.

# System: Mus musculus
# procedure_text: Percent inhibition ofTNF-alpha release 1 hr after oral dosing at 25 mpk
# Format: functional
Rule: Condition met for inhibition in vivo at 25 mg/kg not less than 10%, Condition not met for anything less.

> print(dat)
                                   molecule        label.value
1  CC#CCOc1ccc(S(=O)(=O)N2CCCN(S(=O)(=O)CCC)CC2C(=O)NO)cc1 (stereo unspecified)  Condition not met
2  CC#CCOc1ccc(S(=O)(=O)N2CCCN(S(C)(=O)=O)CC2C(=O)NO)cc1 (stereo unspecified)      Condition met
3  CC#CCOc1ccc(S(=O)(=O)N2CCCN(C(=O)CNC(=O)OC(C)(C)C)CC2C(=O)NO)cc1 (stereo unspecified)      Condition met
4  CC#CCOc1ccc(S(=O)(=O)N2CCCNCC2C(=O)NO)cc1 (stereo unspecified)  Condition not met
5  CC#CCOc1ccc(S(=O)(=O)N2CCCN(S(=O)(=O)c3ccccc3)CC2C(=O)NO)cc1 (stereo unspecified)      Condition met

* * *

# target: Interstitial collagenase (Homo sapiens)
# Sequence (P03956 whole entry): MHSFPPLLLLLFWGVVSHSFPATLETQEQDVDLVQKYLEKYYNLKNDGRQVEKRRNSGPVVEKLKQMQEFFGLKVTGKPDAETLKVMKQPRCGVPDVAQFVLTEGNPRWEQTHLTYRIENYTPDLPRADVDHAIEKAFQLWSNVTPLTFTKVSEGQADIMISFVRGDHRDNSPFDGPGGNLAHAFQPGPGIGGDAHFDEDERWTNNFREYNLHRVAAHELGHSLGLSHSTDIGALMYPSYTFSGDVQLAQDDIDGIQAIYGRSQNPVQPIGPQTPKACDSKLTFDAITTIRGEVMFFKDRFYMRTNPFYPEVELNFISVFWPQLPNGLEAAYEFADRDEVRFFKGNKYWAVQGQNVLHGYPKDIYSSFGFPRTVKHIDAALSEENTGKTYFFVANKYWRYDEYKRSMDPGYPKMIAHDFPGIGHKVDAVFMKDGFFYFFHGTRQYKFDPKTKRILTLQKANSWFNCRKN
pIC50: −log10 of the molar value.
Known pIC50 of a selection of compounds
quantity_measured: pIC50

> print(dat)
                                    compound  obs.value
 1  CC#CCOc1ccc(S(=O)(=O)N2CCN(CC)CCC2C(=O)NO)cc1 (stereo not given)       6.55
 2  CC#CCOc1ccc(S(=O)(=O)N2CCCN(S(=O)(=O)CCC)CC2C(=O)NO)cc1 (stereo not given)       5.94
 3  CC#CCOc1ccc(S(=O)(=O)N2CCS(=O)(=O)CCC2C(=O)NO)cc1 (stereo not given)       6.94
 4  CC#CCOc1ccc(S(=O)(=O)N2CCCN(C(=O)CNC(=O)OC(C)(C)C)CC2C(=O)NO)cc1 (stereo not given)       5.34
 5  CC#CCOc1ccc(S(=O)(=O)N2CCCN(C(=O)CN)CC2C(=O)NO)cc1 (stereo not given)       5.52
 6  CC#CCOc1ccc(S(=O)(=O)N2CCCSCC2C(=O)NO)cc1 (stereo not given)       6.39
 7  CC#CCOc1ccc(S(=O)(=O)N2CCN(C(=O)C(C)C)CCC2C(=O)NO)cc1 (stereo not given)       6.85
 8  CC#CCOc1ccc(S(=O)(=O)N2CCCN(Cc3ccccc3)CC2C(=O)NO)cc1 (stereo not given)       6.67
 9  CC#CCOc1ccc(S(=O)(=O)N2CCN(C(=O)COC)CCC2C(=O)NO)cc1 (stereo not given)       6.56
10  CC#CCOc1ccc(S(=O)(=O)N2CCN(C(=O)CC)CCC2C(=O)NO)cc1 (stereo not given)       6.68

* * *

# target: Disintegrin and metalloproteinase domain-containing protein 17 (Homo sapiens, UniProt P78536)
# Sequence (P78536 whole entry, the tested form may be a part): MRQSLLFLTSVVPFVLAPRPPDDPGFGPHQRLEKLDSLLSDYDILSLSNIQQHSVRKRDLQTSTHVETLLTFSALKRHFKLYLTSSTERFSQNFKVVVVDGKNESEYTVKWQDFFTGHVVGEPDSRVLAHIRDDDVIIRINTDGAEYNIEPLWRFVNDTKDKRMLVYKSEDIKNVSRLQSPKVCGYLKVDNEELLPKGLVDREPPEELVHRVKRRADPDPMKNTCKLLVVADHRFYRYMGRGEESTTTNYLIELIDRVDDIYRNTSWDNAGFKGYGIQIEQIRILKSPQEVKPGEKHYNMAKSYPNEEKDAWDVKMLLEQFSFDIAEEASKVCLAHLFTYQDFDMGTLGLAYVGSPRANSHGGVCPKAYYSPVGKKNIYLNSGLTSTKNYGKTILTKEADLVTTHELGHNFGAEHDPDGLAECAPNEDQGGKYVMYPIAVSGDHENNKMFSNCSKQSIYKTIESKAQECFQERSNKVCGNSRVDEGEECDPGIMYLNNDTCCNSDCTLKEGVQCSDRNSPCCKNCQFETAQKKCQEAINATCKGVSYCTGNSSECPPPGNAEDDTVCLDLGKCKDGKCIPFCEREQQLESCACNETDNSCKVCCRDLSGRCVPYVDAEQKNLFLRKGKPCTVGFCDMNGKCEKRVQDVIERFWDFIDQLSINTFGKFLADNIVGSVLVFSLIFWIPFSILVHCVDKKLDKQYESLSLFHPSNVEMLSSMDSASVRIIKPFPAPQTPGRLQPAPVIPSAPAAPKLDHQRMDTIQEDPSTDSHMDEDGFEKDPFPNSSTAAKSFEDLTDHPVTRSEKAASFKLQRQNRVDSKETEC
pIC50: −log10 of the molar value.
quantity_measured: pIC50

> print(dat)
                                    compound  obs.value
 1  CC#CCOc1ccc(S(=O)(=O)N2CCN(C(=O)COC)CCC2C(=O)NO)cc1 (stereo not given)       7.82
 2  CC#CCOc1ccc(S(=O)(=O)N2CCS(=O)(=O)CCC2C(=O)NO)cc1 (stereo not given)       7.72
 3  CC#CCOc1ccc(S(=O)(=O)N2CCCSCC2C(=O)NO)cc1 (stereo not given)       7.70
 4  CC#CCOc1ccc(S(=O)(=O)N2CCCN(C(=O)CCCN(C)C)CC2C(=O)NO)cc1 (stereo not given)       7.12
 5  CC#CCOc1ccc(S(=O)(=O)N2CCCNCC2C(=O)NO)cc1 (stereo not given)       7.96
 6  CC#CCOc1ccc(S(=O)(=O)N2CCCN(S(=O)(=O)CCC)CC2C(=O)NO)cc1 (stereo not given)       7.52
 7  CC#CCOc1ccc(S(=O)(=O)N2CCCN(C(=O)CNC(=O)OC(C)(C)C)CC2C(=O)NO)cc1 (stereo not given)       8.15
 8  CC#CCOc1ccc(S(=O)(=O)N2CCCN(S(=O)(=O)c3ccccc3)CC2C(=O)NO)cc1 (stereo not given)       7.17
 9  CC#CCOc1ccc(S(=O)(=O)N2CCCS(=O)(=O)CC2C(=O)NO)cc1 (stereo not given)       7.55
10  CC#CCOc1ccc(S(=O)(=O)N2CCN(C(=O)C(C)C)CCC2C(=O)NO)cc1 (stereo not given)       7.64
11  CC#CCOc1ccc(S(=O)(=O)N2CCCN(C(=O)OC(C)(C)C)CC2C(=O)NO)cc1 (stereo not given)       7.46
12  CC#CCOc1ccc(S(=O)(=O)N2CCCN(C)CC2C(=O)NO)cc1 (stereo not given)       7.62
13  CC#CCOc1ccc(S(=O)(=O)N2CCCN(S(C)(=O)=O)CC2C(=O)NO)cc1 (stereo not given)       8.30
14  CC#CCOc1ccc(S(=O)(=O)N2CCN(C(=O)CC)CCC2C(=O)NO)cc1 (stereo not given)       7.72
15  CC#CCOc1ccc(S(=O)(=O)N2CCCN(C(=O)CN)CC2C(=O)NO)cc1 (stereo not given)       7.92
16  CC#CCOc1ccc(S(=O)(=O)N2CCCN(C(=O)c3cccs3)CC2C(=O)NO)cc1 (stereo not given)       8.00
17  CC#CCOc1ccc(S(=O)(=O)N2CCCN(Cc3ccccc3)CC2C(=O)NO)cc1 (stereo not given)       7.21
18  CC#CCOc1ccc(S(=O)(=O)N2CCCN(C(=O)NCCCCCC)CC2C(=O)NO)cc1 (stereo not given)       7.85
19  CC#CCOc1ccc(S(=O)(=O)N2CCCN(C(C)=O)CC2C(=O)NO)cc1 (stereo not given)       8.40
20  CC#CCOc1ccc(S(=O)(=O)N2CCN(CC)CCC2C(=O)NO)cc1 (stereo not given)       7.43
